- system under test: N-type calcium channel subunits (α1B, α2δ, and β3a) (Homo sapiens)
- Sequence (Q00975 whole entry): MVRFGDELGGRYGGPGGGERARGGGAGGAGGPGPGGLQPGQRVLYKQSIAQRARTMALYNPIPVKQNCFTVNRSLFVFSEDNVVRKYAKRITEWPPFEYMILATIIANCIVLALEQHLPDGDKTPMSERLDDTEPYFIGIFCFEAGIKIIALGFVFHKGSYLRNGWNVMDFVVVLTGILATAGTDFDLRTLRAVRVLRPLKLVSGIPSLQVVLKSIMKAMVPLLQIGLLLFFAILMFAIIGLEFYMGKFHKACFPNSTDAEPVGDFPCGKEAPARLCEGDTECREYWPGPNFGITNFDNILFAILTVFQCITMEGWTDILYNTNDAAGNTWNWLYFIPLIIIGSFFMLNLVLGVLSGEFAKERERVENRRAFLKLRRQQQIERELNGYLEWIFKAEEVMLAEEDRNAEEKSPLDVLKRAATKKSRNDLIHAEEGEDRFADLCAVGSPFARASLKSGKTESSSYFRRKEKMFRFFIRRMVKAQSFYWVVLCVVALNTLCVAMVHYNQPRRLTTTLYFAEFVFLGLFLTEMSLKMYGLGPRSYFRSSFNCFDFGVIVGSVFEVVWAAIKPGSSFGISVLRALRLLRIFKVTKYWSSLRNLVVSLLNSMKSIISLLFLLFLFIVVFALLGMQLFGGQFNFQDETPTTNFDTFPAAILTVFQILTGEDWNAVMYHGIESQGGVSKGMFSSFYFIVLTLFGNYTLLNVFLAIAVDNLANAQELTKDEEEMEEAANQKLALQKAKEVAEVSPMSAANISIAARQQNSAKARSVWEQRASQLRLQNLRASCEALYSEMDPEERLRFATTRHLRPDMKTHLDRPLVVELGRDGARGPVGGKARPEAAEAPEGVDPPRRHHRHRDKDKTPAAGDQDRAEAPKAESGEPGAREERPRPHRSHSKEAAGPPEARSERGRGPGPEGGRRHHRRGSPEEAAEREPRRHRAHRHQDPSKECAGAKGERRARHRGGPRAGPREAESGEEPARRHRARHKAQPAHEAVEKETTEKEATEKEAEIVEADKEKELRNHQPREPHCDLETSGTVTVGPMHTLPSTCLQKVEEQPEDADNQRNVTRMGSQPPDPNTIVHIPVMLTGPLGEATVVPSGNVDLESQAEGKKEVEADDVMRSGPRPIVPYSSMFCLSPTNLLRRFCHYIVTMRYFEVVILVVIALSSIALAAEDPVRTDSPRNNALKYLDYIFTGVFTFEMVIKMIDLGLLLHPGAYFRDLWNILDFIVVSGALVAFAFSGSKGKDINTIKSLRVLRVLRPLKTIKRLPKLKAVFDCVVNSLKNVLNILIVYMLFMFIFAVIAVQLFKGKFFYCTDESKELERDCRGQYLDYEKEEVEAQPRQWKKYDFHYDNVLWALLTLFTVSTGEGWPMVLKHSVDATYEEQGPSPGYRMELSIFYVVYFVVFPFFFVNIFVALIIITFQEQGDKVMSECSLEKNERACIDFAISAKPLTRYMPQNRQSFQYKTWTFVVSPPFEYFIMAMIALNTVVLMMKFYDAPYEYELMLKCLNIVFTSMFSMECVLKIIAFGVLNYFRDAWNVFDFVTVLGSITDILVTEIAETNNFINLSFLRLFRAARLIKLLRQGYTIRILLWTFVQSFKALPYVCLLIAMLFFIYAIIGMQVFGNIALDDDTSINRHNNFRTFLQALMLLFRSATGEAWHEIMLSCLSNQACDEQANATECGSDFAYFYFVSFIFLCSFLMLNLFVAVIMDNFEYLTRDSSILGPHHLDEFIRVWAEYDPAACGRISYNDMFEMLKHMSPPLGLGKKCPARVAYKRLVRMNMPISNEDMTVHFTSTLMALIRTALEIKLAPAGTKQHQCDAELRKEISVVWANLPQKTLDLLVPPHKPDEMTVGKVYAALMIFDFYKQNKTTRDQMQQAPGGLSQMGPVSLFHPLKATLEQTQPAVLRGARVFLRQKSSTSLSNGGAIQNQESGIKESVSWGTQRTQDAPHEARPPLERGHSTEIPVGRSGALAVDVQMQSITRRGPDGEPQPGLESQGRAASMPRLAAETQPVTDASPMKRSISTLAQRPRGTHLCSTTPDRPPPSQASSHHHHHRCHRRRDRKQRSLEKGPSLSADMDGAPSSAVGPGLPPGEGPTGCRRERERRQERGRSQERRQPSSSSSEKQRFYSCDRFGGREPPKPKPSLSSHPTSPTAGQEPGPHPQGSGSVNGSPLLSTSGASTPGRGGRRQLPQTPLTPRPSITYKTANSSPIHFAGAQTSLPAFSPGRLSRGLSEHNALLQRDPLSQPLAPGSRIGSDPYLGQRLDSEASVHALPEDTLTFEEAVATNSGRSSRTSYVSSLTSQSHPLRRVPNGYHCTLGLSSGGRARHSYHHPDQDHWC
- Sequence (P54289 25-1103 partner): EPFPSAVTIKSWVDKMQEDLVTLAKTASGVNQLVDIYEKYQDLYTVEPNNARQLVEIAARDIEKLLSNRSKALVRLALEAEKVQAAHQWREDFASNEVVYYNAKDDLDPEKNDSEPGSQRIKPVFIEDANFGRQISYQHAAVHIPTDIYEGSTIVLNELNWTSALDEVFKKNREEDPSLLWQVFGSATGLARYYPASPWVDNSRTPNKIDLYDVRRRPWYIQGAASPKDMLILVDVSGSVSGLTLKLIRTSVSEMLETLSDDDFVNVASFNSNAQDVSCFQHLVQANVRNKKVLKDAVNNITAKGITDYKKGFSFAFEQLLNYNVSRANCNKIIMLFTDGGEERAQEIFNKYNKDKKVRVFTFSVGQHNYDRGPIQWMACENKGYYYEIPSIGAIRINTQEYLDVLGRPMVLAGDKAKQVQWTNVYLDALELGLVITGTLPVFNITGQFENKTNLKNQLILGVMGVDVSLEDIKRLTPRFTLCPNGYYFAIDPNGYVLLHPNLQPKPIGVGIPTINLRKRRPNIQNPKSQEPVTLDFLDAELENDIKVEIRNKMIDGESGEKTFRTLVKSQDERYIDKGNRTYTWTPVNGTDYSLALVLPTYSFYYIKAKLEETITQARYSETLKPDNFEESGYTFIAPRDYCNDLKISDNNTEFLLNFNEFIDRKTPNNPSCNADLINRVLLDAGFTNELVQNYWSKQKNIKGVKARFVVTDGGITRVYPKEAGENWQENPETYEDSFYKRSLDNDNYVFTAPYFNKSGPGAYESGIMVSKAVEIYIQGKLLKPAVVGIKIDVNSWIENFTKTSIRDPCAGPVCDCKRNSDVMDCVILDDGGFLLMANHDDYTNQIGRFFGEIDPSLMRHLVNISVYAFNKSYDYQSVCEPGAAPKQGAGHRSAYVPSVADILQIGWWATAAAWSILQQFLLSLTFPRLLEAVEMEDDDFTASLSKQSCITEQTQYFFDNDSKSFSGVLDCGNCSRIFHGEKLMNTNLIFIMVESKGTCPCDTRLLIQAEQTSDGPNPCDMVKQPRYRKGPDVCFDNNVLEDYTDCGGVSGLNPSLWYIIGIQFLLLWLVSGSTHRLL
- Sequence (P54284 whole entry partner): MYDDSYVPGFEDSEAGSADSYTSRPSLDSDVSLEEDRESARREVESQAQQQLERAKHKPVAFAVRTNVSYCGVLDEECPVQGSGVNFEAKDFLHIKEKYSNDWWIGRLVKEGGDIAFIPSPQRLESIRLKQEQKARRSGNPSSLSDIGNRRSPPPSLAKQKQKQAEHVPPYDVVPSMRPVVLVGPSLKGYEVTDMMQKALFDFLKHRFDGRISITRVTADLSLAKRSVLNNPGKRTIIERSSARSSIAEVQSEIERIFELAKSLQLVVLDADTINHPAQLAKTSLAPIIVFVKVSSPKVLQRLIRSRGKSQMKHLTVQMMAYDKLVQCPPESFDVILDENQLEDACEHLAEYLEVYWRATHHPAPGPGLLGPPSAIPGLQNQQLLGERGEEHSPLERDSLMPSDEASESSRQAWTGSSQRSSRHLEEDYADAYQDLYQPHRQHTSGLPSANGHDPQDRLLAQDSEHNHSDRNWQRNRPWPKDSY
- method notes: Block of Cav2.2 channel, whole cell voltage clamp, manual and PatchXpress
- Type: cell-based
- experimental setup: Table 5; table follows Assay Example 3 (whole cell voltage clamp / PatchXpress); assay not given
reported metric: IC50 (nM)

Would you please look over these solved cases?
molecule	system under test	IC50 / nM
CS(=O)(=O)c1cc(Cl)ccc1C(=O)NC[C@H]1C[C@H](S(=O)(=O)c2cccc(C(F)(F)F)c2)C1	N-type calcium channel subunits (α1B, α2δ, and β3a) (Homo sapiens)	940
O=C(N[C@H]1CC[C@H](S(=O)(=O)c2cccc(C(F)(F)F)c2)CC1)c1ccc(OCC(F)(F)F)nc1	N-type calcium channel subunits (α1B, α2δ, and β3a) (Homo sapiens)	3110

P: CC1(CNC(=O)c2ccc(F)c(C(F)(F)F)c2)CCC(S(=O)(=O)c2cccc(C(F)(F)F)c2)CC1 (stereo not shown)
Q: O=C(N[C@H]1CC[C@@H](CS(=O)(=O)c2cccc(C(F)(F)F)c2)CC1)c1ccc(F)c(Cl)c1
q: Select the item with the higher value of IC50 from the options P and Q listed. Write down the label of the entry you select.
a: Q
